Assay: PSAC antagonists in infected red cells, primary screen, cell-based, P. falciparum Indochina, OD700, 18 h (AID 1157)
Conditions: P. falciparum Indochina infected erythrocytes, osmotic lysis OD700, 18 h; higher = more signal, called active from +8 up or from −8 down
z-score of 0.4 or higher: met. Under 0.4: not met.

Query block: Form field: z-score at least 0.4? Entry: CCCCCCCCCCC(O)C1C=CC2C(=O)N(C)C(=O)C2N1Nc1cc(OC)c(OC)c(OC)c1 (centres undefined)
Result block: met

Query block: Form field: z-score at least 0.4? Entry: `COCCOC(=O)N1C(=O)[C@@]2(c3ccccc31)[C@H](c1ccccc1OCCO)N1[C@H](c3ccccc3)[C@H](c3ccccc3)OC(=O)[C@H]1[C@@H]2C(=O)N1CCCCCCC1`
Result block: met

Query block: Form field: z-score at least 0.4? Entry: `CCOC(=O)C1=C[C@@H](C(C)(C)C)N(S(=O)(=O)c2ccc(C)cc2)[C@H]1c1ccccc1`
Result block: not met

Query block: Form field: z-score at least 0.4? Entry: `CC(C)C[C@@H]1NC(=O)[C@H]2C[C@@H](C(=O)NCCCCCN)[C@@H](c3cccc(OCCO)c3)N2C1=O`
Result block: not met

Query block: Form field: z-score at least 0.4? Entry: NC(=O)N1C(=O)C2C(C1=O)C1C=C(CCCO)C2C(C2CC2)N1Cc1cccc(OC(F)(F)F)c1 (centres undefined)
Result block: not met

Query block: Form field: z-score at least 0.4? Entry: O=C1C2C=CC(C(O)c3cc(C(F)(F)F)cc(C(F)(F)F)c3)N(Nc3ccccc3F)C2C(=O)N1c1ccccc1 (centres undefined)
Result block: met

Query block: Form field: z-score at least 0.4? Entry: CCCCCCCCCCC(O)C1C=CC2C(=O)N(c3ccccc3)C(=O)C2N1Nc1ccccc1F (centres undefined)
Result block: met

Query block: Form field: z-score at least 0.4? Entry: `CC(=O)NCCCC[C@@H]1NC(=O)[C@@H]2C[C@H](C(=O)NCCCCCCN)[C@H](c3cccc(OCCO)c3)N2C1=O`
Result block: not met

Query block: Form field: z-score at least 0.4? Entry: `COCCCNC(=O)[C@@]1(Sc2ccc(C)cc2)CC(=O)N(C(C)C)[C@@H]1c1ccc(CO)cc1I`
Result block: not met

Query block: Form field: z-score at least 0.4? Entry: COC(=O)C1N=C(c2ccc(OCCCO)cc2)N(c2ccccc2)O1 (centres undefined)
Result block: met

Query block: Form field: z-score at least 0.4? Entry: `COCCOC(=O)N1C(=O)[C@@]2(c3cc(C#CCC(C(=O)OC)C(=O)OC)ccc31)[C@H](c1ccc(O)cc1)N1[C@H](c3ccccc3)[C@H](c3ccccc3)OC(=O)[C@H]1[C@@H]2C(=O)NC[C@H](O)c1ccccc1`
Result block: not met

Query block: Form field: z-score at least 0.4? Entry: `COCCOC(=O)N1C(=O)[C@@]2(c3cc(C#CCCO)ccc31)[C@H](c1ccccc1OCCO)N1[C@H](c3ccccc3)[C@H](c3ccccc3)OC(=O)[C@H]1[C@@H]2C(=O)N1CCCCCCC1`
Result block: met

Query block: Form field: z-score at least 0.4? Entry: `COc1ccc([Si](C)(C)[C@H]2[C@H](CC(=O)N3Cc4ccccc4C[C@H]3CO)O[C@@]3(C(=O)N(Cc4ccc(N5C(=O)c6cccc7cccc5c67)cc4)c4ccccc43)[C@@H]2C)cc1`
Result block: met

Query block: Form field: z-score at least 0.4? Entry: CC(C)[C@H]1NC(=O)[C@@]23C(=O)N[C@@H](Cc4ccccc4)C2[C@H](C)[C@@]2(C)O[C@H]2C3/C=C/CCC/C=C/CNC(=O)[C@H](Cc2ccccc2)NC1=O (some centres undefined)
Result block: not met

Query block: Form field: z-score at least 0.4? Entry: `O=C1O[C@H](c2ccccc2)[C@H](c2ccccc2)N2[C@H]1[C@@H](C(=O)N1CCCCCCC1)[C@]1(C(=O)Nc3ccc(C#CC4(O)CCCCCC4)cc31)[C@H]2c1ccccc1OCCO`
Result block: met

Query block: Form field: z-score at least 0.4? Entry: `CCCNC(=O)[C@@]1(Sc2ccc(C)cc2)CC(=O)N(C2CCCCC2)[C@@H]1c1ccc(CO)cc1I`
Result block: not met

Query block: Form field: z-score at least 0.4? Entry: CCOC(=O)C1=CCN(S(=O)(=O)c2ccc(C)cc2)C1c1ccccc1 (centres undefined)
Result block: met

Query block: Form field: z-score at least 0.4? Entry: `C=CCN1C(=O)[C@]2(O[C@H](CCO)[C@@H]([Si](C)(C)c3ccc(OC)cc3)[C@@H]2C)c2cc(N3C(=O)COc4ccccc43)ccc21`
Result block: met

Query block: Form field: z-score at least 0.4? Entry: `Cc1c(NC(=O)/C(C#N)=C/c2ccccc2Cl)c(=O)n(-c2ccccc2)n1C`
Result block: not met

Query block: Form field: z-score at least 0.4? Entry: `CN(C)C(=O)[C@@]1(Cc2ccccc2)COC(c2ccc(OCCCO)cc2)=N1`
Result block: met

Query block: Form field: z-score at least 0.4? Entry: `COc1ccc(C#Cc2ccc3c(c2)[C@]2(C(=O)N3)[C@H](C(=O)N3CCCCCCC3)[C@H]3C(=O)O[C@H](c4ccccc4)[C@H](c4ccccc4)N3[C@@H]2c2ccc(O)cc2)cc1`
Result block: not met

Query block: Form field: z-score at least 0.4? Entry: `C=CCNC(=O)[C@@H]1[C@H]2C(=O)O[C@H](c3ccccc3)[C@H](c3ccccc3)N2[C@H](c2ccc(O)cc2)[C@@]12C(=O)N(C(=O)OCCOC)c1ccc(C#CCCO)cc12`
Result block: not met

Query block: Form field: z-score at least 0.4? Entry: `C=C(C(=O)CC[C@@H](OC(=O)c1ccccc1-c1ccccc1C(=O)O)c1ccccc1OCCO)C(C)C`
Result block: not met

Query block: Form field: z-score at least 0.4? Entry: `CN(C)CCCCNC(=O)[C@H]1C[C@H]2C(=O)N[C@@H](CCCC[N+](C)(C)C)C(=O)N2[C@H]1c1ccc(O)cc1`
Result block: not met

Query block: Form field: z-score at least 0.4? Entry: COc1cc2c(cc1O)C(c1cccs1)N(Cc1sc3ccccc3c1Cl)CC2 (centres undefined)
Result block: met

Query block: Form field: z-score at least 0.4? Entry: O=C1OCCC=C[C@H]2OC34C=CCN(c5ccc(Cl)cc5)C(=O)[C@H]3N(CCCCCCO)C(=O)[C@@H]4C12 (some centres undefined)
Result block: not met

Query block: Form field: z-score at least 0.4? Entry: `CCCCC=C[C@@H](NC(=O)c1ccccc1)c1ccccc1`
Result block: met

Query block: Form field: z-score at least 0.4? Entry: COc1cc(NN2C(C(O)C3CCCCC3)C=CC3C(=O)N(C)C(=O)C32)cc(OC)c1OC (centres undefined)
Result block: met

Query block: Form field: z-score at least 0.4? Entry: C=CCC(OC(C)=O)[C@@H]1[C@@H](N(Cc2cccc3ccccc23)C(=O)Cc2ccc(F)cc2)c2cc(OCCCO)ccc2N1C(=O)c1ccc(-c2ccccc2)cc1 (some centres undefined)
Result block: not met

----------
System: Human papillomavirus type 1a E7 protein (residues 1-88)
Assay: HPV1a E7 small-molecule binders, primary screen, biochemical, small-molecule microarray, residues 1-88, 635 nm (AID 1129)
Settings: small-molecule microarray binding, fluorescence 635 nm; higher = more signal
Observed property: composite z-score
Give the figure only, with no unit attached.

Query block: Given `COc1cc2c(cc1OC)CN(C(=O)[C@@H]1[C@H]3C(=O)O[C@H](c4ccccc4)[C@H](c4ccccc4)N3[C@H](c3ccc(O)cc3)[C@@]13C(=O)Nc1ccc(C#CCCO)cc13)CC2` , respond with its composite z-score.
Result block: 0.989

Query block: Given `COC(=O)c1c2oc(c1C(=O)OC)C(=O)N1CCC[C@H]1Cn1nncc1CN(Cc1ccccc1)C(=O)N[C@H](CO)CC2` , respond with its composite z-score.
Result block: -0.243

Query block: Given CC(C)C(CO)N1C(=O)[C@@H]2[C@H]3C(=O)OCC=C[C@H]3OC23C=CCN(C(C)(C)C)C(=O)[C@@H]13 (stereo not given in full) , respond with its composite z-score.
Result block: -1.09

Query block: Given Cc1ccccc1C(O)C1C=CC2C(=O)N(c3ccccc3)C(=O)C2N1Nc1ccc([N+](=O)[O-])cc1 (stereo not given) , respond with its composite z-score.
Result block: 1.21

Query block: Given `[N-]=[N+]=Nc1ccccc1C[C@@]1(C(=O)O)N=C(c2ccc(OCCCO)cc2)O[C@@H]1c1ccccc1N=[N+]=[N-]` , respond with its composite z-score.
Result block: 1.25

Query block: Given `C[C@]1(C(=O)NCCN2CCOCC2)c2ccccc2C(=O)N(Cc2cc(F)cc(C(F)(F)F)c2)[C@H]1c1ccc(CO)cc1` , respond with its composite z-score.
Result block: 0.917

Query block: Given `[N-]=[N+]=NCc1ccccc1C[C@]1(C(=O)N2CCOCC2)COC(c2ccc(OCCCO)cc2)=N1` , respond with its composite z-score.
Result block: 1.19

Query block: Given `O=C(O)[C@H]1C[C@H]2C(=O)N[C@@H](Cc3ccccc3)C(=O)N2[C@H]1c1cccc(OCCO)c1` , respond with its composite z-score.
Result block: -0.0006

Query block: Given CCOC(=O)C1=CCN(S(=O)(=O)c2ccc(C)cc2)C1c1ccccc1 (stereo not given) , respond with its composite z-score.
Result block: 1.2

Query block: Given `O=C1C[C@@](C(=O)NCC(F)(F)F)(c2ccc([N+](=O)[O-])cc2)[C@@H](c2ccc(CO)cc2)N1CC12CC3CC(CC(C3)C1)C2` , respond with its composite z-score.
Result block: 1.2

Query block: Given `C=C[C@@H](OC)[C@H](OC(=O)Nc1ccc(OC)cc1)c1ccc(OC)c(O)c1` , respond with its composite z-score.
Result block: -1.06

Query block: Given `CCc1cccc(NC(=O)O[C@H]2[C@H](OC(=O)Nc3ccccc3)[C@H](OC(=O)Nc3ccccc3)[C@@H](OC)O[C@@H]2CO)c1` , respond with its composite z-score.
Result block: 1.26

Query block: Given Cc1ccccc1C(O)C1C=CC2C(=O)NC(=O)C2N1Nc1ccc(Cl)cc1Cl (stereo not given) , respond with its composite z-score.
Result block: 1.18

Query block: Given `O=C1c2ccccc2[C@](Cc2ccccc2I)(C(=O)NC2CC2)[C@H](c2ccc(CO)cc2)N1Cc1ccccc1C(F)(F)F` , respond with its composite z-score.
Result block: 0.749

Query block: Given COc1ccc(C(O)C2C=CC3C(=O)N(c4ccccc4)C(=O)C3N2Nc2ccc(C(C)C)cc2)c2ccccc12 (stereo not given) , respond with its composite z-score.
Result block: 1.25

Query block: Given COc1cc(NN2C(C(O)C3CCCCC3)C=CC3C(=O)N(c4ccccc4)C(=O)C32)cc(OC)c1OC (stereo not given) , respond with its composite z-score.
Result block: 1.26

Query block: Given `CN(C)CCCCCCNC(=O)[C@@H]1C[C@@H]2C(=O)N[C@@H](CCCCN)C(=O)N2[C@@H]1c1ccc(O)cc1` , respond with its composite z-score.
Result block: 1.33

Query block: Given `COc1cccc(/C=C(\C#N)C(=O)Nc2c(C)n(C)n(-c3ccccc3)c2=O)c1` , respond with its composite z-score.
Result block: 0.0072

Query block: Given `C#C[C@@H](CC)O[Si](C#CCCCC#N)(C(C)C)C(C)C` , respond with its composite z-score.
Result block: 0.0253

Query block: Given `[N-]=[N+]=Nc1ccccc1C[C@]1(C(=O)NCc2ccccc2)COC(c2ccc(OCCCO)cc2)=N1` , respond with its composite z-score.
Result block: 1.2

Query block: Given `COCCCNC(=O)[C@@]1(Sc2ccc(C)cc2)CC(=O)N(Cc2ccccc2Cl)[C@@H]1c1ccc(CO)cc1I` , respond with its composite z-score.
Result block: -0.943

Query block: Given `C[C@@H]1ON(c2ccc(I)cc2)[C@H](c2ccc(OC(=O)OC(C)(C)C)cc2)[C@H]1C(=O)N1C(=O)OC[C@H]1Cc1ccccc1` , respond with its composite z-score.
Result block: 1.13

Query block: Given COc1cc(NN2C(C(O)c3ccccc3)C=CC3C(=O)N(C)C(=O)C32)cc(OC)c1OC (stereo not given) , respond with its composite z-score.
Result block: 1.19

Query block: Given O=C1C2C=CC(C(O)c3ccco3)N(Nc3ccccc3)C2C(=O)N1c1ccccc1 (stereo not given) , respond with its composite z-score.
Result block: 0.556

Query block: Given `CCCNC(=O)[C@@]1(C)c2ccccc2C(=O)N(Cc2ccccc2)[C@H]1c1ccc(CO)cc1` , respond with its composite z-score.
Result block: 0.0323

Query block: Given `COCCOC(=O)N1C(=O)[C@@]2(c3cc(C#CCC(C(=O)OC)C(=O)OC)ccc31)[C@H](c1ccc(OCCO)cc1)N1[C@H](c3ccccc3)[C@H](c3ccccc3)OC(=O)[C@H]1[C@@H]2C(=O)Nc1nc2ccccc2s1` , respond with its composite z-score.
Result block: 1.16

Query block: Given C=CCC(OC(C)=O)[C@@H]1[C@@H](N(Cc2ccc(-c3cccc(C(F)(F)F)c3)o2)C(=O)c2ccc(C)cc2)c2cc(OCCCO)ccc2N1C(=O)Cc1ccc(OC)cc1 (stereo not given in full) , respond with its composite z-score.
Result block: -0.269

Query block: Given CC(C)=CCCC(C)=CC(O)C1C=CC2C(=O)N(c3ccccc3)C(=O)C2N1Nc1ccccc1F (stereo not given) , respond with its composite z-score.
Result block: 1.03

Query block: Given `C=CCNC(=O)[C@H]1[C@@H]2C(=O)O[C@@H](c3ccccc3)[C@@H](c3ccccc3)N2[C@@H](c2ccc(O)cc2)[C@]12C(=O)N(C(=O)OCCOC)c1ccc(C#CCC(C(=O)OC)C(=O)OC)cc12` , respond with its composite z-score.
Result block: 1.13

Query block: Given `Cc1ccc(F)cc1S(=O)(=O)N[C@@H]1CCN(Cc2cccc3[nH]ccc23)C1` , respond with its composite z-score.
Result block: 0.179
